TARGET_OF_ASSAY: T1, human calcitonin receptor (human, UniProt P30988 25-474)
T1 construct: whole, on cells; Membranes of a BHK tk'ts 13 cell line stably transfected with the human calcitonin receptor; also called hCTR; hCT
T1 sequence (looked up): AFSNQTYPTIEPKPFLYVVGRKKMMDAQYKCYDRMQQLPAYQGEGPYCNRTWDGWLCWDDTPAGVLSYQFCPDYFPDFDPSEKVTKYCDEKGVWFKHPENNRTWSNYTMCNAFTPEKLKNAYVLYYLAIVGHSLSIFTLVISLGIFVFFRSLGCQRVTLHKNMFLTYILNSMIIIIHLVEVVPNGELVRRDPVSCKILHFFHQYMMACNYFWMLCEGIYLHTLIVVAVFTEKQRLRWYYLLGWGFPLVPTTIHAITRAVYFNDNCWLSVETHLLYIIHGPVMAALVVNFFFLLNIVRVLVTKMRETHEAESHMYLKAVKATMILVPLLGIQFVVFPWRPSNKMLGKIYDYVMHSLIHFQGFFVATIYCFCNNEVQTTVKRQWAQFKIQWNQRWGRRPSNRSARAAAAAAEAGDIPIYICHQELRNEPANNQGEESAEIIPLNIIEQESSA
TEST: IC50 at hCTR divided by IC50 at hAmylin-R (reference)
Numbered stars: 1 amine (or outer) side, 2 acyl side, 3 side chain; on linkers, the order of the positions; unused ones are H or OH. Bridge positions count the residues as written; N and C are the ends. * marks the point of attachment. C20 diacid = O=C(O)CCCCCCCCCCCCCCCCCCC(=O)*; γGlu = O=C(O)[C@H](CCC(=O)[*:2])N[*:1]
PARAMETER: Ratio hCT/hAmylin binding

Examples with their reported Ratio hCT/hAmylin binding follow.
>>> result("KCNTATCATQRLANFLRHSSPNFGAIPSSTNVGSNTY (C20 diacid-gGlu-2xOEG on the alpha amino group of the N-terminal residue (Lys 1); disulfide bridge Cys2-Cys7; C-terminal amide, modifications are with respect to human amylin; also called compound 24)")
90
>>> result("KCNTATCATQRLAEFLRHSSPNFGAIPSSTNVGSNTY (C20 diacid-gGlu-2xOEG on the alpha amino group of the N-terminal residue (Lys 1); disulfide bridge Cys2-Cys7; C-terminal amide, modifications are with respect to human amylin; also called compound 19)")
36.7
>>> result("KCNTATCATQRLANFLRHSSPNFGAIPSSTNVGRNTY (C20 diacid-gGlu on the alpha amino group of the N-terminal residue (Lys 1); disulfide bridge Cys2-Cys7; C-terminal amide, modifications are with respect to human amylin; also called compound 39) [N^α1-[(4S)-4-carboxy-4-(19-carboxynonadecanoylamino)butanoyl]-[Arg17,Pro21,Pro27,Arg34]-h-amylin]")
29

Reported Ratio hCT/hAmylin binding for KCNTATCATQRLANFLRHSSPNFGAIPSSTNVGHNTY (C20 diacid-gGlu on the alpha amino group of the N-terminal residue (Lys 1); disulfide bridge Cys2-Cys7; C-terminal amide, modifications are with respect to human amylin; also called compound 40) [N^α1-[(4S)-4-carboxy-4-(19-carboxynonadecanoylamino)butanoyl]-[Arg17,Pro21,Pro27,His34]-h-amylin] was 31.1

Per the records, this binder ( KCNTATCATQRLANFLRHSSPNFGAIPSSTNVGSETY (C20 diacid-gGlu on the alpha amino group of the N-terminal residue (Lys 1); disulfide bridge Cys2-Cys7; C-terminal amide, modifications are with respect to human amylin; also called compound 23) [N^α1-[(4S)-4-carboxy-4-(19-carboxynonadecanoylamino)butanoyl]-[Arg17,Pro21,Pro27,Glu35]-h-amylin] ) has Ratio hCT/hAmylin binding equal to 25

Lab book: Ratio hCT/hAmylin binding of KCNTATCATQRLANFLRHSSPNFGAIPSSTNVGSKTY (C20 diacid-gGlu on the alpha amino group of the N-terminal residue (Lys 1); disulfide bridge Cys2-Cys7; C-terminal amide, modifications are with respect to human amylin; also called compound 34) [N^α1-[(4S)-4-carboxy-4-(19-carboxynonadecanoylamino)butanoyl]-[Arg17,Pro21,Pro27,Lys35]-h-amylin] noted as 64.4

// Ratio hCT/hAmylin binding value for {C20 diacid-γGlu}-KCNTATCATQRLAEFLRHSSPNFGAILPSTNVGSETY-NH2 (disulfide 2-7, modifications are with respect to human amylin; also called compound 33) : 3.9
